test target: adenosine 1 (Homo sapiens)
Sequence (P30542 whole entry): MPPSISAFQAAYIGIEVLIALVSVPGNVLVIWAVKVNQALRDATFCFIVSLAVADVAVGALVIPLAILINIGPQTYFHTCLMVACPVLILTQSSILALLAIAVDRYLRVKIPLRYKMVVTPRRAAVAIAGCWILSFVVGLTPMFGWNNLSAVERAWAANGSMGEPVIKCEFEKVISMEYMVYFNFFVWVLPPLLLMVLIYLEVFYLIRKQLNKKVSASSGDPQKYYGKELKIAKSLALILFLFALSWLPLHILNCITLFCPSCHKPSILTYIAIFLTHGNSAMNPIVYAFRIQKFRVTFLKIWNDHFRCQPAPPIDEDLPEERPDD
protocol summary: Agonist activity against adenosine receptor subtypes, CHO cells with cAMP response element/SPAP reporter (forskolin-enhanced cAMP)
Format: cell-based
test parameters: ratio to EC50 of NECA; transfected CHO cells; effect on forskolin-enhanced cAMP via SPAP
Label T for high-side A1 (EC50 values as a ratio of that of NECA) (at or above 2000) and F for low-side A1 (EC50 values as a ratio of that of NECA) (below it).

Examples from the recorded data:
CCc1nc([C@H]2O[C@@H](n3cnc4c(NCC(c5ccccc5)c5ccccc5)nc(NCCc5cn(C)cn5)nc43)[C@H](O)[C@@H]2O)no1.O=CO
T
CCc1nnc([C@H]2O[C@@H](n3cnc4c(NCC(c5ccccc5)c5ccccc5)nc(N[C@H](CO)Cc5ccccc5)nc43)[C@H](O)[C@@H]2O)o1.O=CO
F
CCc1nnc([C@H]2O[C@@H](n3cnc4c(NCC(c5ccccc5)c5ccccc5)nc(NCCc5ccccn5)nc43)[C@H](O)[C@@H]2O)o1.O=CO
F
CCc1nnc([C@H]2O[C@@H](n3cnc4c(NCC(c5ccccc5)c5ccccc5)nc(N[C@@H]5CCNC5)nc43)[C@H](O)[C@@H]2O)o1.O=CO
F

Would you kindly look at the next entry?
Task: Answer whether A1 (EC50 values as a ratio of that of NECA) of CC(C)c1nnc([C@H]2O[C@@H](n3cnc4c(NCC(c5ccccc5)c5ccccc5)nc(N[C@H](CO)Cc5ccccc5)nc43)[C@H](O)[C@@H]2O)[nH]1.O=CO is greater than or equal to 2000.
Result: T

* * *

Entries and their measured A3 (EC50 values as a ratio of that of NECA) follow.
test target: adenosine 3 (Homo sapiens, UniProt P0DMS8)
protocol summary: Agonist activity against adenosine receptor subtypes, CHO cells with cAMP response element/SPAP reporter (forskolin-enhanced cAMP)
Format: cell-based
test parameters: ratio to EC50 of NECA; transfected CHO cells; effect on forskolin-enhanced cAMP via SPAP

Below, 2 molecules whose answers are already recorded.
CCC(CC)Nc1nc(N[C@@H]2CCNC2)nc2c1ncn2[C@@H]1O[C@H](c2nnc(C3CC3)o2)[C@@H](O)[C@H]1O.O=CO.O=CO [Example 40]
>173
CCc1nnc([C@H]2O[C@@H](n3cnc4c(NCC(c5ccccc5)c5ccccc5)nc(N[C@@H]5CCNC5)nc43)[C@H](O)[C@@H]2O)[nH]1.O=CO [Example 9]
>147

Shifting focus to the molecule that follows.
Task: Answer with the recorded A3 (EC50 values as a ratio of that of NECA) of CCc1nnc([C@H]2O[C@@H](n3cnc4c(NCC(c5ccccc5)c5ccccc5)nc(NCCN5CCCCC5)nc43)[C@H](O)[C@@H]2O)o1.O=CO [Example 22] only.
Result: >180

* * *

Entries and their measured A2a (EC50 values as a ratio of that of NECA) follow.
test target: adenosine 2a (Homo sapiens, UniProt P29274)
Sequence (P29274 whole entry): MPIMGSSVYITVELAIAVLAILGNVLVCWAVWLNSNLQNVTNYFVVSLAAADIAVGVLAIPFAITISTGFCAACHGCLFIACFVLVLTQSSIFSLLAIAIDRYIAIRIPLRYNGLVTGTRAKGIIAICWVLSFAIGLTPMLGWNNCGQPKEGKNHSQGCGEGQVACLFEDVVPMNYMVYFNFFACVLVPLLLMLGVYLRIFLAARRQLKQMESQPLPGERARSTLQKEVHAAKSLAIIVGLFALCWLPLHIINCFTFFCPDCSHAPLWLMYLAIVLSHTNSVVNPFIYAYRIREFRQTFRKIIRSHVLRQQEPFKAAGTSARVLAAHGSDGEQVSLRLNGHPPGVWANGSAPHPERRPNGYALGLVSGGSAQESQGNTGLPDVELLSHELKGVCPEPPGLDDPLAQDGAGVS
protocol summary: Agonist activity against adenosine receptor subtypes, CHO cells with cAMP response element/SPAP reporter (basal cAMP)
Format: cell-based
test parameters: ratio to EC50 of NECA; transfected CHO cells; effect on basal cAMP via SPAP
Provide a numeric answer; units are not to be included.

Task: Answer with the recorded A2a (EC50 values as a ratio of that of NECA) of CCc1nnc([C@H]2O[C@@H](n3cnc4c(NCC(c5ccccc5)c5ccccc5)nc(N[C@H](CO)Cc5ccccc5)nc43)[C@H](O)[C@@H]2O)[nH]1.O=CO only.
Result: 1

Task: Answer with the recorded A2a (EC50 values as a ratio of that of NECA) of CCc1nc([C@H]2O[C@@H](n3cnc4c(NCC(c5ccccc5)c5ccccc5)nc(N[C@H]5CC[C@H](N)CC5)nc43)[C@H](O)[C@@H]2O)no1.O=CO.O=CO (relative stereo) only.
Result: 4.77

Task: Answer with the recorded A2a (EC50 values as a ratio of that of NECA) of Cc1nnc([C@H]2O[C@@H](n3cnc4c(NCC(c5ccccc5)c5ccccc5)nc(NCCc5cn(C)cn5)nc43)[C@H](O)[C@@H]2O)[nH]1.O=CO only.
Result: 3.54

* * *

test target: adenosine 3 (Homo sapiens)
Sequence (P0DMS8 1-318): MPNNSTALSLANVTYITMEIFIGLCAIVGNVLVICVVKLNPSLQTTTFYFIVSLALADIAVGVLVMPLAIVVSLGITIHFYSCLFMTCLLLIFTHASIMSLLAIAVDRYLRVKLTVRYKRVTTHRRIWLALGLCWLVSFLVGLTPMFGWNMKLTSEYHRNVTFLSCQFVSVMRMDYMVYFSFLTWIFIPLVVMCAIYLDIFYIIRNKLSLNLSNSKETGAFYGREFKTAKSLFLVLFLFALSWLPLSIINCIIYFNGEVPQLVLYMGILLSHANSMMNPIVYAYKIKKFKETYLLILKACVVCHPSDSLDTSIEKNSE
protocol summary: Agonist activity against adenosine receptor subtypes, CHO cells with cAMP response element/SPAP reporter (forskolin-enhanced cAMP)
Assay type: cell-based
test parameters: ratio to EC50 of NECA; transfected CHO cells; effect on forskolin-enhanced cAMP via SPAP
Experimental: Compounds of the invention were tested for in vitro and in vivo biological activity in accordance with the following screens: • (1) Agonist activity against adenosine 2a, adenosine 1 and adenosine 3 receptor subtypes. Agonist selectivity of compounds against other human adenosine receptors was determined using Chinese hamster ovary (CHO) cells transfected with the gene for the relevant human adenosine receptor following a method based on that of Castanon and Spevak, 1994 . […]
measured quantity: A3 (EC50 values as a ratio of that of NECA)

Below, 4 compounds whose answers are already recorded.
Cc1nnc([C@H]2O[C@@H](n3cnc4c(NCC(c5ccccc5)c5ccccc5)nc(NCCc5cn(C)cn5)nc43)[C@H](O)[C@@H]2O)s1.O=CO.O=CO
>293
CC(C)c1nnc([C@H]2O[C@@H](n3cnc4c(NCC(c5ccccc5)c5ccccc5)nc(N[C@H](CO)Cc5ccccc5)nc43)[C@H](O)[C@@H]2O)[nH]1.O=CO
>257
CCc1nc([C@H]2O[C@@H](n3cnc4c(NCC(c5ccccc5)c5ccccc5)nc(N[C@H]5CC[C@H](N)CC5)nc43)[C@H](O)[C@@H]2O)no1.O=CO.O=CO (relative stereo)
>194
Cc1nnc([C@H]2O[C@@H](n3cnc4c(NCC(c5ccccc5)c5ccccc5)nc(N[C@H](CO)Cc5ccccc5)nc43)[C@H](O)[C@@H]2O)s1.O=CO
>470

Shifting focus to the compound that follows.
Task: Answer with the recorded A3 (EC50 values as a ratio of that of NECA) of CCc1nnc([C@H]2O[C@@H](n3cnc4c(NCC(c5ccccc5)c5ccccc5)nc(N[C@H](CO)Cc5ccccc5)nc43)[C@H](O)[C@@H]2O)o1.O=CO only.
Result: >173

* * *

test target: adenosine 1 (Homo sapiens)
protocol summary: Agonist activity against adenosine receptor subtypes, CHO cells with cAMP response element/SPAP reporter (forskolin-enhanced cAMP)
Type: cell-based
test parameters: ratio to EC50 of NECA; transfected CHO cells; effect on forskolin-enhanced cAMP via SPAP
measured quantity: A1 (EC50 values as a ratio of that of NECA)

Cc1nnc([C@H]2O[C@@H](n3cnc4c(NCC(c5ccccc5)c5ccccc5)nc(NCCN5CCCC5)nc43)[C@H](O)[C@@H]2O)[nH]1.O=CO
>8325

Shifting focus to the compound that follows.
Task: Identify measured A1 (EC50 values as a ratio of that of NECA) obtained with adenosine 1 (Homo sapiens) for CCc1nc([C@H]2O[C@@H](n3cnc4c(NCC(c5ccccc5)c5ccccc5)nc(N[C@H]5CC[C@H](N)CC5)nc43)[C@H](O)[C@@H]2O)no1.O=CO.O=CO (relative stereo) .
Result: >8841
